tested on: 463943-066-T-J2-PDC tumor spheroids with HUVEC/MSC, viability; assay: Anticancer human tumor 463943-066-T-J2-PDC patient-derived colon adenocarcinoma cell line growth inhibition [TAK]; conditions: compound alone; run of 02/28/2020
reportedEndpoint: IC50

Record CC(C)NCC(C(=O)N1CCN(c2ncnc3c2C(C)CC3O)CC1)c1ccc(Cl)cc1 (stereo unspecified) . Reported IC50: > 30 µM

---

tested on: 463943-066-T-J2-PDC tumor spheroids with HUVEC/MSC, viability; test: Anticancer human tumor 463943-066-T-J2-PDC cell line growth inhibition [TAK]; conditions: second compound 30 µM; first compound 0.001 µM; stronger effect = lower value;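 further: spheroids exposed to drugs for seven days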;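 on viability, T/C: 100% = DMSO vehicle control wells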
reportedEndpoint: viability, T/C (%)
The reply should contain only the number, in %.

Record excerpt, results attached:
compound	viability, T/C (%)
CC(C)CC(NC(=O)C(Cc1ccccc1)NC(=O)c1cnccn1)B(O)O (centres undefined) + CC(C)NCC(C(=O)N1CCN(c2ncnc3c2C(C)CC3O)CC1)c1ccc(Cl)cc1	88.2
CC(C)n1nc(-c2ccc3oc(N)nc3c2)c2c(N)ncnc21 + CC(C)NCC(C(=O)N1CCN(c2ncnc3c2C(C)CC3O)CC1)c1ccc(Cl)cc1	106
COC1CC2CCC(C)C(O)(O2)C(=O)C(=O)N2CCCCC2C(=O)OC(C(C)CC2CCC(OCCO)C(OC)C2)CC(=O)C(C)C=C(C)C(O)C(OC)C(=O)C(C)CC(C)C=CC=CC=C1C (centres undefined) + CC(C)NCC(C(=O)N1CCN(c2ncnc3c2C(C)CC3O)CC1)c1ccc(Cl)cc1	79.9

Now for another entry.
Measured viability, T/C, CC(C)CC(NC(=O)CNC(=O)c1cc(Cl)ccc1Cl)B1OC(=O)CC(CC(=O)O)(C(=O)O)O1 (centres undefined) + CC(C)NCC(C(=O)N1CCN(c2ncnc3c2C(C)CC3O)CC1)c1ccc(Cl)cc1 : 99.1
